Where these numbers come from: ChEMBL document CHEMBL5236598

# assay_info: Selectivity index, ratio of CC50 for cytotoxicity against human MT4 cells to EC50 for antiviral activity against HIV-1 RES056 harboring RT K103N/Y181C double mutant infected in human MT4 cells
# Type: toxicity, cell-based
# condition_context: read-out: Ratio CC50/EC50
readout_type: selectivity ratio

# annotated cases, reported selectivity ratio shown
> print(dat)
                               smiles.input  assay.value
1  Cc1cc(-c2ccc(F)cc2)cc(C)c1Oc1nc(Nc2ccc(C#N)nc2)nc2ccsc12          < 1
2  Cc1cc(/C=C/C#N)cc(C)c1Oc1nc(Nc2ccc(C#N)nc2)nc2cc[nH]c12          < 1
3  N#C/C=C/c1cc(F)c(Oc2nc(Nc3ccc(C#N)nc3)nc3cc[nH]c23)c(F)c1          < 1
4  Cc1cc(C#N)cc(C)c1Oc1nc(NC2CCN(c3c(F)cc([N+](=O)[O-])cc3F)CC2)nc2sccc12          < 1
5  Cc1cc(C#N)cc(C)c1Oc1nc(NC2CCN(c3ccc([N+](=O)[O-])cc3F)CC2)nc2sccc12          < 1

Hi there! I need selectivity ratio for each item below, if you can.
1. Cc1cc(/C=C/C#N)cc(C)c1Oc1nc(NC2CCN(c3ccc([N+](=O)[O-])cc3F)CC2)nc2ccsc12
2. Cc1cc(C#N)cc(C)c1Oc1nc(NC2CCN(c3ccc([N+](=O)[O-])cc3)CC2)nc2sccc12
3. N#C/C=C/c1cc(F)c(Oc2nc(Nc3ccc(C#N)c(F)c3)nc3sccc23)c(F)c1
4. Cc1cc(/C=C/C#N)cc(C)c1Oc1nc(NC2CCN(c3ccc([N+](=O)[O-])cc3F)CC2)nc2sccc12
5. Cc1cc(C#N)cc(C)c1Oc1nc(NC2CCN(c3ccc([N+](=O)[O-])cc3F)CC2)nc2ccsc12

result:
1: < 1; 2: > 5; 3: < 1; 4: > 169; 5: < 1
